Cited source for all entries: patent US20180291110A1

target: T1, Her2 ECD (amino acids 1 to 629 of matured HER2 with C-terminal avi-tag and His-tag) (human, UniProt P04626 23-652); assay: SPR, Ab captured, Her2 analyte;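 note: ProteOn XPR36 SPR, rate constants from simultaneous fit of association and dissociation sensorgrams to a 1:1 Langmuir model, buffer-channel referenced, KD taken as koff/kon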
T1 construct: also called purified Her2
Attribute Measured: koff (s⁻¹)
Reply with just the number (in s⁻¹).

# query: koff of entry Pertuzumab HC x Pertuzumab (Tras.L3) LC (antibody, V domains shown, human IgG) VH: EVQLVESGGGLVQPGGSLRLSCAASGFTFTDYTMDWVRQAPGKGLEWVADVNPNSGGSIYNQRFKGRFTLSVDRSKNTLYLQMNSLRAEDTAVYYCARNLGPSFYFDYWGQGTLVTVSS VL: DIQMTQSPSSLSASVGDRVTITCKASQDVSIGVAWYQQKPGKAPKLLIYSASYRYTGVPSRFSGSGSGTDFTLTISSLQPEDFATYYCQQHYTTPPTFGQGTKVEIK
0.00209

And Pertuzumab HC x Pertuzumab (Tras.L3) T56S LC (antibody, V domains shown) VH: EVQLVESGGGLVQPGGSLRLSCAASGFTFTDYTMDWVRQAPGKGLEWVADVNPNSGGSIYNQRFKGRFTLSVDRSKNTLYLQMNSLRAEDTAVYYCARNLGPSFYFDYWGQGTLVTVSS VL: DIQMTQSPSSLSASVGDRVTITCKASQDVSIGVAWYQQKPGKAPKLLIYSASYRYSGVPSRFSGSGSGTDFTLTISSLQPEDFATYYCQQHYTTPPTFGQGTKVEIK ?
0.00245

And Pertuzumab HC x Pertuzumab (Tras.L3) R54L LC (antibody, V domains shown) VH: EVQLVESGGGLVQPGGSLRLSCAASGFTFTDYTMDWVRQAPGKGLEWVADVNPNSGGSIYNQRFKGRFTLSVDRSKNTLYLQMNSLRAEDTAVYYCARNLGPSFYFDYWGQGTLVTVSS VL: DIQMTQSPSSLSASVGDRVTITCKASQDVSIGVAWYQQKPGKAPKLLIYSASYLYTGVPSRFSGSGSGTDFTLTISSLQPEDFATYYCQQHYTTPPTFGQGTKVEIK ?
0.00226

And Pertuzumab HC x Pertuzumab (Tras.L3) S30N LC (antibody, V domains shown) VH: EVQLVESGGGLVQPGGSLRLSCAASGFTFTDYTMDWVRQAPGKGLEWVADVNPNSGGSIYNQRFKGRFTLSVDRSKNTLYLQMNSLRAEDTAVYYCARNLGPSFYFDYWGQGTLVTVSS VL: DIQMTQSPSSLSASVGDRVTITCKASQDVNIGVAWYQQKPGKAPKLLIYSASYRYTGVPSRFSGSGSGTDFTLTISSLQPEDFATYYCQQHYTTPPTFGQGTKVEIK ?
0.0018
